B1: Gamma-crystallin S, residues 96 to 176; numbered along this chain, P22914 (parent)
chain: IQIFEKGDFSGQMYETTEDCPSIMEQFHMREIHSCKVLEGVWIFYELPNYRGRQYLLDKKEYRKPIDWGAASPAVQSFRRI

Variants of: B1
Experiment: abundance fitness (aPCA) (normalised: wild type 0, dead -1); higher = more abundant; growth selection in yeast, the domain comes from the species named
Conditions: Homo sapiens
metric: abundance fitness
Note: the reply should be a number with no unit written.

Worked examples follow.
IQIFEKGDFSGQMYETTEDCPSIMEQFHMREIHSCKVLEGVWIFYELPNYRGRQYLLDKKEYRKPIDWGAASPAVQSFLRI [R79L]: -0.406
IQIFEKGDFSGQMYETTEACPSIMEQFHMREIHSCKVLEGVWIFYELPNYRGRQYLLDKKEYRKPIDWGAASPAVQSFRRI [D19A]: -0.005

Incoming: Give the measured abundance fitness for IQIFEKGDFSGQMYETTEDCPSIMWQFHMREIHSCKVLEGVWIFYELPNYRGRQYLLDKKEYRKPIDWGAASPAVQSFRRI [E25W]
Outgoing: -0.434

Incoming: Identify measured abundance fitness associated with IQIFEKGDFSGQMYETTEDCPSIMEQFHMREIHSCKVLEGVHIFYELPNYRGRQYLLDKKEYRKPIDWGAASPAVQSFRRI [W42H]
Outgoing: -0.461
